Tested on: Salmonella typhimurium
Assay: In vitro minimum inhibitory concentration for Salmonella Typhimurium (ATCC-14028) by agar dilution method
Format: functional, Salmonella enterica subsp. enterica serovar Typhimurium
Conditions: Salmonella enterica; read-out: MIC
measured-attribute: MIC (µg/mL)

A: C[n+]1cc(Cc2ccccc2)c(N)nc1SCC1=C(C(=O)[O-])N2C(=O)C(NC(=O)/C(=N\OC(C)(C)C(=O)O)c3cnc(N)s3)C2SC1 (stereo unspecified)
B: CCn1cc[n+]2c(SCC3=C(C(=O)[O-])N4C(=O)C(NC(=O)/C(=N\OC(C)(C)C(=O)O)c5cnc(N)s5)C4SC3)nc(N)cc12 (stereo unspecified)
C: Cc1c(N)nc(SCC2=C(C(=O)[O-])N3C(=O)C(NC(=O)/C(=N\OC(C)(C)C(=O)O)c4cnc(N)s4)C3SC2)[n+]2ncn(C)c12 (stereo unspecified)
In this exercise, place the 3 molecules in ascending sequence of their recorded MIC. Your reply should list the labels following the order given in the request.
B, C, A
(B: 0.13 µg/mL, C: 0.25 µg/mL, A: 0.5 µg/mL)

a: Cn1cc[n+]2c(SCC3=C(C(=O)[O-])N4C(=O)C(NC(=O)/C(=N\OC(C)(C)C(=O)O)c5cnc(N)s5)C4SC3)nc(N3CCOCC3)cc12 (stereo unspecified)
b: Cc1c(N)nc(SCC2=C(C(=O)[O-])N3C(=O)C(NC(=O)/C(=N\OC(C)(C)C(=O)O)c4cnc(N)s4)C3SC2)[n+]2nc(C)n(C)c12 (stereo unspecified)
Of a versus b , which is the one with smaller reported MIC? API: response body contains the label of the selected item.
b
(b: 0.25 µg/mL, a: 0.5 µg/mL)

* * *

Tested on: Proteus vulgaris
Assay: In vitro minimum inhibitory concentration for Proteus vulgaris (ATCC-6059) by agar dilution method
Type: functional
Details: Proteus vulgaris; read-out: MIC
measured-attribute: MIC (µg/mL)

a: Cc1cccc(C)c1-[n+]1c(N)cc(N)nc1SCC1=C(C(=O)[O-])N2C(=O)C(NC(=O)/C(=N\OC(C)(C)C(=O)O)c3cnc(N)s3)C2SC1 (configuration not stated)
b: CC(C)(O/N=C(\C(=O)NC1C(=O)N2C(C(=O)[O-])=C(CSc3nc(N)c4c([n+]3N)CCC4)CSC12)c1cnc(N)s1)C(=O)O (configuration not stated)
c: C[n+]1cccnc1SCC1=C(C(=O)[O-])N2C(=O)C(NC(=O)/C(=N\OC(C)(C)C(=O)O)c3cnc(N)s3)C2SC1 (configuration not stated)
d: CC(C)(O/N=C(\C(=O)NC1C(=O)N2C(C(=O)[O-])=C(CSc3nc(N)cc(N)[n+]3N)CSC12)c1cnc(N)s1)C(=O)O (configuration not stated)
Put the items above in order of decreasing MIC. Your reply should list the labels following the order given in the request.
a, c, b, d

1: C[n+]1cc(Cc2ccccc2)c(N)nc1SCC1=C(C(=O)[O-])N2C(=O)C(NC(=O)/C(=N\OC(C)(C)C(=O)O)c3cnc(N)s3)C2SC1 (configuration not stated)
2: Cc1c(N)nc(SCC2=C(C(=O)[O-])N3C(=O)C(NC(=O)/C(=N\OC(C)(C)C(=O)O)c4cnc(N)s4)C3SC2)[n+]2nc(C)n(C)c12 (configuration not stated)
3: Cc1cc(C)[n+](C)c(SCC2=C(C(=O)[O-])N3C(=O)C(NC(=O)/C(=N\OC(C)(C)C(=O)O)c4cnc(N)s4)C3SC2)n1 (configuration not stated)
4: CCCC[n+]1c(N)cc(N)nc1SCC1=C(C(=O)[O-])N2C(=O)C(NC(=O)/C(=N\OC(C)(C)C(=O)O)c3cnc(N)s3)C2SC1 (configuration not stated)
Please list the entries, largest MIC first. Your reply should list the labels following the order given in the request.
1, 4, 2, 3
